Items are presented alongside their recorded IC50.
- Tested on: HepG2
- Assay details: Antiproliferative activity against human HepG2 cells assessed as growth inhibition after 72 hrs by CCK-8 assay
- Format: functional, cell-based
- Condition summary: HepG2, 72 h
Measure: IC50 (µM)

# Molecule, Measure, Units, Obs value
data = [
    ("COc1cc([C@@H]2c3cc4c(cc3[C@H](O)[C@H]3COC(=O)[C@H]23)OCO4)cc(OC)c1OC", "IC50", "µM", 0.014),
    ("COc1cc([C@@H]2c3cc4c(cc3[C@H](OC(=O)CCC(=O)O[C@H]3O[C@@H]5O[C@@]6(C)CC[C@H]7[C@H](C)CC[C@@H]([C@H]3C)[C@@]57OO6)[C@H]3COC(=O)[C@H]23)OCO4)cc(OC)c1OC", "IC50", "µM", 0.672),
    ("C[C@H]1[C@H](OC(=O)CCC(=O)O)O[C@@H]2O[C@@]3(C)CC[C@H]4[C@H](C)CC[C@@H]1[C@@]24OO3 [ARTESUNATE]", "IC50", "µM", 22.2),
    ("COc1cc([C@@H]2c3cc4c(cc3[C@@H](O[C@@H]3O[C@@H]5CO[C@@H](C)O[C@H]5[C@H](O)[C@H]3O)[C@H]3COC(=O)[C@H]23)OCO4)cc(OC)c1O [ETOPOSIDE]", "IC50", "µM", 1.75),
]

---

- Test system: K562
- Assay details: Resistance factor, ratio of IC50 for human K562/ADR cells to IC50 for human K562 cells
- Format: functional
Items are presented alongside their recorded Ratio IC50.

# Compound, Ratio IC50
measured = [
    ("COc1cc([C@@H]2c3cc4c(cc3[C@H](O)[C@H]3COC(=O)[C@H]23)OCO4)cc(OC)c1OC [PODOFILOX]", 14.166),
    ("COc1cc([C@@H]2c3cc4c(cc3[C@@H](O[C@@H]3O[C@@H]5CO[C@@H](C)O[C@H]5[C@H](O)[C@H]3O)[C@H]3COC(=O)[C@H]23)OCO4)cc(OC)c1O [ETOPOSIDE]", 4.903),
    ("COc1cc([C@@H]2c3cc4c(cc3[C@H](OC(=O)CCC(=O)O[C@H]3O[C@@H]5O[C@@]6(C)CC[C@H]7[C@H](C)CC[C@@H]([C@H]3C)[C@@]57OO6)[C@H]3COC(=O)[C@H]23)OCO4)cc(OC)c1OC", 4.454),
    ("C[C@H]1[C@H](OC(=O)CCC(=O)O)O[C@@H]2O[C@@]3(C)CC[C@H]4[C@H](C)CC[C@@H]1[C@@]24OO3 [ARTESUNATE]", 1.042),
]
